# experimental_target: UniProtKB Q04609
# Sequence (Q04609 whole entry): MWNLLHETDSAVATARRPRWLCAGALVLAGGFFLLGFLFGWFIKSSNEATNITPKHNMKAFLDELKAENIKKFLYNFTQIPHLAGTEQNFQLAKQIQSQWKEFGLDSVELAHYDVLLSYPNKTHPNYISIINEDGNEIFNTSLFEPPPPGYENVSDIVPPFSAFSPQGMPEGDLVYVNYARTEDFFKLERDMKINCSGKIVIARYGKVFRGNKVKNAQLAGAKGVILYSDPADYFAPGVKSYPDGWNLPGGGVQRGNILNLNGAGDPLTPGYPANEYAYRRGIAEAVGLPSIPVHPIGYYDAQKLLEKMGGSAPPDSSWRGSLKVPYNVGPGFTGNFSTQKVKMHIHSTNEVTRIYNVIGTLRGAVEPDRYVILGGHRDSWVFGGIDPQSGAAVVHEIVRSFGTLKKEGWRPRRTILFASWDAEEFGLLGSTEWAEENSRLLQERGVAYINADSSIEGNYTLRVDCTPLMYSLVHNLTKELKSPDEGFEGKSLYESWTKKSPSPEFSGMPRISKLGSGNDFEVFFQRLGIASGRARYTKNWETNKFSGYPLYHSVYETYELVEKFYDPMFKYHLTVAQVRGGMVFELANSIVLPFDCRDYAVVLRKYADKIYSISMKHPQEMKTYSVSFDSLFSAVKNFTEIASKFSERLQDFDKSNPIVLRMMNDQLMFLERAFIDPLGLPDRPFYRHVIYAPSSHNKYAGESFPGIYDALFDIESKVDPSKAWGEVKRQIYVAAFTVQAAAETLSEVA
# assay_text: Binding affinity to PSMA in human LNCaP cells after 1 hr by gamma counting
# Format: cell-based
quantity_measured: Kd
Form field: result (number plus unit)

Worked cases, Kd given:
O=C(O)CC[C@H](NC(=O)N[C@@H](CCCCNCc1ccc([125I])cc1)C(=O)O)C(=O)O = 0.0204 µM
O=C(O)CC[C@H](NC(=O)N[C@@H](Cc1ccc(O)c([125I])c1)C(=O)O)C(=O)O = 0.143 µM

Turning to the following compound.
Record request: Kd value, item O=C(O)CC[C@H](NC(=O)N[C@@H](CSC1CC(=O)N(CCCC[C@H](NC(=O)CNC(=O)c2cccc([125I])c2)C(=O)O)C1=O)C(=O)O)C(=O)O (stereo partly drawn)
0.0078 µM

###

# assay_text: Ratio of drug level in human LNCAP cells xenografted in C.B.-17/Icr +/+ Jcl mouse to blood of C.B.-17/Icr +/+ Jcl mouse xenografted with human LNCAP and PC3 cells at 25.9 MBq, iv after 3 hrs
# Format: ADME, organism-based
# conditions: LNCAP tumour xenograft relative to blood
quantity_measured: Kp at 3 h
# respond with the number and nothing more

Value lookup for Kp at 3 h; key = O=C(O)CC[C@H](NC(=O)N[C@@H](CSC1CC(=O)N(CCCC[C@H](NC(=O)CNC(=O)c2cccc([125I])c2)C(=O)O)C1=O)C(=O)O)C(=O)O (stereo partly specified)
13.8
